Here, each record is paired with measured plant injury at 125 g/ha data.
# Test system: corn (Zea mays)
# protocol_description: Test A postemergence
# Format: in vivo
# cond: Zea mays, post-emergence, 240 h, 125 g ai/ha, Postemergence, visual rating about 10 d after treatment; read-out: Corn plant response rating (0 to 100 scale)
Your answer should be a number followed by the unit of measure.

Please review the following examples before continuing.
compound	target_or_test_system	experimental_result
CN1C[C@H](c2ccc(C(F)(F)F)nc2)[C@@H](C(=O)Nc2cccc(F)c2F)C1=O	corn (Zea mays)	70%
Cc1ccncc1NC(=O)[C@H]1C(=O)N(C)C[C@@H]1c1ccc2c(c1)OC(F)(F)O2	corn (Zea mays)	0%
COc1cc([C@H]2CN(C)C(=O)[C@@H]2C(=O)Nc2cccc(F)c2C)ccc1F	corn (Zea mays)	20%

As a next step, examine the compound that follows.
# plant injury at 125 g/ha lookup, item O=C1NCC(c2ccccc2)C1C(=O)Nc1ccccc1 (stereo not shown) 0%

====

Here, each record is paired with measured Plant response rating, Kochia data.
# Tested on: Kochia (Kochia scoparia)
# protocol_description: Test A postemergence
# Format: in vivo
# cond: 500 g ai/ha, postemergence; 0 to 100 scale, 0 no effect, 100 complete control

Please review the following examples before continuing.
compound	experimental_result
CN1CC(c2ccc(Cl)cc2)C(C(=O)Nc2ccccc2S(C)(=O)=O)C1=O (stereo not drawn)	50
CN1CC(c2ccc3c(c2)OC(F)(F)O3)C(C(=O)Nc2ccc(F)cc2F)C1=O (stereo not drawn)	80
CN1CC(c2ccc(Cl)cc2)C(C(=O)Nc2ccc(F)cc2F)C1=O (stereo not drawn)	70
O=C1NCC(c2cccc(OC(F)F)c2)C1C(=O)Nc1ccccc1OC(F)F (stereo not drawn)	20
O=C1NCC(c2ccc(F)c(F)c2)C1C(=O)Nc1ccc(Cl)cc1F (stereo not drawn)	0
Cc1cc(C2CN(C)C(=O)C2C(=O)Nc2cccc(F)c2F)ccc1F (stereo not drawn)	60
CN1CC(c2cccc(OC(F)(F)C(F)F)c2)C(C(=O)Nc2ccccc2C(F)(F)F)C1=O (stereo not drawn)	50
Cc1cc(NC(=O)C2C(=O)NCC2c2ccc(F)c(F)c2)ccc1C(F)(F)F (stereo not drawn)	10

As a next step, examine the compound that follows.
# Plant response rating, Kochia lookup, item CS(=O)(=O)c1ccccc1NC(=O)C1C(=O)NCC1c1ccc(Br)cc1 (stereo not drawn) 70

====

# Tested on: pigweed (Amaranthus retroflexus)
# protocol_description: Test A postemergence
# Format: in vivo
# cond: Postemergence, 500 g ai/ha; 0 to 100 scale where 0 is no effect and 100 is complete control
observation_type: Plant response rating, Pigweed
// no unit string in output, number only

compound	Plant response rating, Pigweed
O=C1NCC(c2ccc(Oc3ccccc3)cc2)C1C(=O)Nc1ccccc1F (racemic)	0
CC(C)=CCN1CC(c2cccc(C(F)(F)F)c2)C(C(=O)Nc2ccccc2F)C1=O (centres unmarked)	0
CN1CC(c2ccc(C(F)(F)F)cc2F)C(C(=O)Nc2ccccc2F)C1=O (centres unmarked)	40

# Plant response rating, Pigweed lookup, item O=C(Nc1ccccc1F)C1C(=O)N(CC=CBr)CC1c1cccc(C(F)(F)F)c1 (centres unmarked) 0

# Plant response rating, Pigweed lookup, item O=C1NCC(c2cc(C(F)(F)F)cc(C(F)(F)F)c2)C1C(=O)Nc1ccc(F)cc1F (centres unmarked) 0

# Plant response rating, Pigweed lookup, item O=C1NCC(c2cc(F)c(F)cc2F)C1C(=O)Nc1cccc(F)c1F (racemic) 0

# Plant response rating, Pigweed lookup, item CN1CC(c2ccc(C(F)(F)F)cc2F)C(C(=O)Nc2cccc(F)c2F)C1=O (centres unmarked) 60

# Plant response rating, Pigweed lookup, item O=C1NCC(c2cccc(F)c2F)C1C(=O)Nc1ccccc1F (centres unmarked) 0
